Values were extracted from patent US10196403B2.

# Tested on: mice
# METHOD_NOTES: Neuropharmacological Assay (SmartCube)
# Assay type: in vivo
# RUN_PARAMETERS: mice, i.p. 15 min before test, most efficacious dose(s) of 3 doses
MEASURED_ENDPOINT: SD: sedative hypnotic (SmartCube probability)

Example entries begin here.
molecule="NC[C@H]1OCCc2c(Cl)cccc21 [Example 66, (S)-(5-chloroisochroman-1-yl)methanamine]" result="+ (LOQ≤ + <5%)"
molecule="CNC[C@H]1OCC(F)(F)c2ccccc21 [Example 27]" result="+ (LOQ≤ + <5%)"
molecule="CNC[C@@H]1OCCc2ccc(F)cc21 [Example 15]" result="++ (5%≤ ++ <25%)"
molecule="CNC[C@H]1OCCc2c(C)cccc21 [Example 38]" result="++ (5%≤ ++ <25%)"
molecule="CNC[C@@H]1OCCc2cc3c(cc21)OCO3 (stereo in doubt) [Example 6]" result="+ (LOQ≤ + <5%)"

Request: Sample NC[C@@H]1OCCc2cccc(F)c21 [Example 35, (R)-(8-fluoroisochroman-1-yl)methanamine] — what was its SD: sedative hypnotic (SmartCube probability)?
Result: ++ (5%≤ ++ <25%)

Request: Sample CNC[C@@H]1OCCc2c(Cl)cccc21 [Example 33] — what was its SD: sedative hypnotic (SmartCube probability)?
Result: ++ (5%≤ ++ <25%)

Request: Sample CNC[C@H]1OCCc2ccc3c(c21)OCCO3 [Example 9] — what was its SD: sedative hypnotic (SmartCube probability)?
Result: ++ (5%≤ ++ <25%)

Request: Sample CNC[C@H]1OCc2c(Cl)cccc21 [Example 92] — what was its SD: sedative hypnotic (SmartCube probability)?
Result: ++ (5%≤ ++ <25%)

Request: Sample CNC[C@@H]1OCCc2c(OC)cccc21 [Example 63] — what was its SD: sedative hypnotic (SmartCube probability)?
Result: ++ (5%≤ ++ <25%)

Request: Sample CNC[C@@H]1OC[C@H](O)c2ccc3c(c21)OCO3 (single isomer, unassigned) [Example 114] — what was its SD: sedative hypnotic (SmartCube probability)?
Result: + (LOQ≤ + <5%)

Request: Sample CNC[C@@H]1OCc2cccc(F)c21 [Example 69] — what was its SD: sedative hypnotic (SmartCube probability)?
Result: + (LOQ≤ + <5%)

Request: Sample CNC[C@H]1OCCc2c(Cl)cccc21 [Example 32] — what was its SD: sedative hypnotic (SmartCube probability)?
Result: + (LOQ≤ + <5%)

###

# Tested on: mice
# METHOD_NOTES: Neuropharmacological Assay (SmartCube)
# Type: in vivo
# RUN_PARAMETERS: mice, i.p. 15 min before test, most efficacious dose(s) of 3 doses
MEASURED_ENDPOINT: SD: sedative hypnotic (SmartCube probability)

Example entries begin here.
compound=CNC[C@@H]1OCC(F)(F)c2ccccc21 tested_system=mice result="++ (5%≤ ++ <25%)"
compound=CCNC[C@@H]1OCCc2cccc(F)c21 tested_system=mice result="+ (LOQ≤ + <5%)"
compound=CNC[C@@H]1OCCc2ccc3c(c21)OC(F)(F)O3 tested_system=mice result="+ (LOQ≤ + <5%)"
compound=CNC[C@@H]1OCCc2cccc(C)c21 tested_system=mice result="++ (5%≤ ++ <25%)"
compound="CNC(C)C1OCCc2ccc3c(c21)OCO3 (stereo not shown)" tested_system=mice result="+ (LOQ≤ + <5%)"

Request: Sample NC[C@@H]1OCCc2c1ccc1c2OCO1 — what was its SD: sedative hypnotic (SmartCube probability)?
Result: ++ (5%≤ ++ <25%)

Request: Sample CNC[C@H]1OC[C@@H](F)c2ccccc21 — what was its SD: sedative hypnotic (SmartCube probability)?
Result: ++ (5%≤ ++ <25%)

Request: Sample CNC[C@H]1OCCc2ccc3c(c21)OCO3 — what was its SD: sedative hypnotic (SmartCube probability)?
Result: ++ (5%≤ ++ <25%)

Request: Sample CN(C)C[C@H]1OCCc2cccc(F)c21 — what was its SD: sedative hypnotic (SmartCube probability)?
Result: ++ (5%≤ ++ <25%)

Request: Sample Fc1cccc2c1[C@H](CNC1CCC1)OCC2 — what was its SD: sedative hypnotic (SmartCube probability)?
Result: + (LOQ≤ + <5%)
